Data credit: patent EP0982026A2

# system name: NMDA receptor (Rattus norvegicus, UniProt P35439+Q00960)
# Construct: Membranes were prepared by homogenization of the whole brain minus cerebellum and medulla oblongata; from tissue; host or cells: rat whole brain minus cerebellum and medulla oblongata (membranes)
# Sequence (Q00960 27-1482, other chains not shown): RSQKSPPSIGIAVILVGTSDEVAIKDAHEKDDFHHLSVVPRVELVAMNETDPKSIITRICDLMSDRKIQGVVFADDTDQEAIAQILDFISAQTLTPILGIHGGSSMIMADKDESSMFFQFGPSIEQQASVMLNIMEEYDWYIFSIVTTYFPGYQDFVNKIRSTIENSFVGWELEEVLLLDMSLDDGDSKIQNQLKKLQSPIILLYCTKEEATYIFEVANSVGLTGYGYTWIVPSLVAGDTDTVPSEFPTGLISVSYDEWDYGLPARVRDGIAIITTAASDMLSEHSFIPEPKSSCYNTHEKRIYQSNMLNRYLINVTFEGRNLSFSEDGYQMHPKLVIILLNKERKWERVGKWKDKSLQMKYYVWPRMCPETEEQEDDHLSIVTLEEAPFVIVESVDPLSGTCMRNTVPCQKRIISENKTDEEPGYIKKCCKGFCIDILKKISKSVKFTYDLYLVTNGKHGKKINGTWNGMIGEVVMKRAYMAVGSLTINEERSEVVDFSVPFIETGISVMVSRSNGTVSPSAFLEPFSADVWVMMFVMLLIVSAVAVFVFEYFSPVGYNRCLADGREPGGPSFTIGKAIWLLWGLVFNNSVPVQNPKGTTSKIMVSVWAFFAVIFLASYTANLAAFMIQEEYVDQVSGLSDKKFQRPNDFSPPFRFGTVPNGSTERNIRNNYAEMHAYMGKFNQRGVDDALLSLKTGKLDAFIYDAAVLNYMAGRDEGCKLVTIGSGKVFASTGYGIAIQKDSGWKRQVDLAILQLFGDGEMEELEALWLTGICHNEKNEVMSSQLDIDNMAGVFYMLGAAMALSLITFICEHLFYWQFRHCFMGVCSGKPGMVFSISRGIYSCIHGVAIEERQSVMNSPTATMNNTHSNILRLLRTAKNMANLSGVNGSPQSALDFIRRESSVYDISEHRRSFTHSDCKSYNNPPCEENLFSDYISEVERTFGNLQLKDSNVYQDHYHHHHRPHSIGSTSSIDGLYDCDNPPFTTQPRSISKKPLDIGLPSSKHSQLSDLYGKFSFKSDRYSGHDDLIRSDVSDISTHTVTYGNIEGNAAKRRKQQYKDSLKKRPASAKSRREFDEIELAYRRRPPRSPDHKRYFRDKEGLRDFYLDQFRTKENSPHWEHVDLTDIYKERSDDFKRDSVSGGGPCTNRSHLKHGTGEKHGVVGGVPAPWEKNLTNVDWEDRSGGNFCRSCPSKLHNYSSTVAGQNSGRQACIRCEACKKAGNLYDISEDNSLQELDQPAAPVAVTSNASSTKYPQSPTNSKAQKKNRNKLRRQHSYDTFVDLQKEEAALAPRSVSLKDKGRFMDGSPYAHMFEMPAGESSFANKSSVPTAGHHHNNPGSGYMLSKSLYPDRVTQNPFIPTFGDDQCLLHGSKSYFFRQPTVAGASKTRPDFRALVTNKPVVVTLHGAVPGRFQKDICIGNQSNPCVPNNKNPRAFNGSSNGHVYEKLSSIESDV
# assay remarks: 3H-Ro 25-6981 binding (displacement) on rat brain membranes
# Set-up: species or system Füllinsdorf albino rats
# applied conditions: displacement of 5 nM 3H-Ro 25-6981; rat whole brain membranes (minus cerebellum and medulla oblongata); 2 hours at 4°C; read-out: IC50
Would you mind telling me the reported IC50 of each entry?
Answer format: numeric, nM implied, no suffix.

For the molecule CN(CCCc1ccccc1)[C@H]1CC[C@H](c2ccc(NS(C)(=O)=O)cc2)CC1 , report IC50.
11

For the molecule Cc1ccc(OCCN(C)[C@H]2CC[C@@H](c3ccc(O)cc3)CC2)cc1 [Example 45b] , report IC50.
130

For the molecule Oc1ccc([C@H]2CC[C@H](NCCCCc3ccccc3)CC2)cc1 , report IC50.
70

For the molecule Cc1cccc(OCCN(C)[C@H]2CC[C@H](c3ccc(O)cc3)CC2)c1 [Example 47b] , report IC50.
30

For the molecule CC(CCc1ccccc1)N[C@H]1CC[C@H](c2ccc(O)cc2)CC1 (mixture of isomers) , report IC50.
40

For the molecule Oc1ccc(N2CCC(NCCCCc3ccccc3)CC2)cc1 [Example 83c] , report IC50.
60

For the molecule Cc1ccc(CCCN[C@H]2CC[C@H](c3ccc(O)cc3)CC2)cc1 [Example 60b] , report IC50.
7

For the molecule OCC(CCc1ccccc1)N[C@H]1CC[C@H](c2ccc(O)cc2)CC1 (mixture of isomers) [Example 66c] , report IC50.
20

For the molecule CN(C(CO)CCc1ccccc1)[C@H]1CC[C@H](c2ccc(O)cc2)CC1 (mixture of isomers) [Example 65b] , report IC50.
10

For the molecule CCN(CCCc1ccccc1)[C@H]1CC[C@H](c2ccc(O)cc2)CC1 [Example 40c] , report IC50.
40

For the molecule CN(CCOc1ccccc1)[C@H]1CC[C@H](c2ccc(O)cc2)CC1 [Example 41b] , report IC50.
20

For the molecule CN(CCCc1ccc(F)cc1)[C@H]1CC[C@H](c2ccc(O)cc2)CC1 [Example 61b] , report IC50.
4

For the molecule CN(CCCc1ccccc1)[C@H]1CC[C@H](c2ccc(O)cc2)CC1 [Example 39b] , report IC50.
9

For the molecule Oc1ccc([C@H]2CC[C@H](NCCC(O)c3ccccc3)CC2)cc1 (mixture of isomers) [Example 64b] , report IC50.
60

For the molecule Oc1ccc([C@H]2CC[C@H](NCCCc3ccccc3)CC2)cc1 [Example 22b] , report IC50.
20

For the molecule OCC(CN[C@H]1CC[C@H](c2ccc(O)cc2)CC1)Cc1ccccc1 (mixture of isomers) [Example 70b] , report IC50.
100

For the molecule CC(CCc1ccccc1)N(C)[C@H]1CC[C@H](c2ccc(O)cc2)CC1 (mixture of isomers) [Example 57b] , report IC50.
10

For the molecule CN(CCC(CO)c1ccccc1)[C@H]1CC[C@H](c2ccc(O)cc2)CC1 (mixture of isomers) [Example 67b] , report IC50.
100

---

Would you mind telling me the reported pIC50 of each entry?
# system name: NMDA receptor (Rattus norvegicus, UniProt P35439+Q00960)
# Construct: Membranes were prepared by homogenization of the whole brain minus cerebellum and medulla oblongata; from tissue; host or cells: rat whole brain minus cerebellum and medulla oblongata (membranes)
# assay remarks: 3H-Ro 25-6981 binding (displacement) on rat brain membranes
# Design: species or system Füllinsdorf albino rats
# applied conditions: displacement of 5 nM 3H-Ro 25-6981; rat whole brain membranes (minus cerebellum and medulla oblongata); 2 hours at 4°C; read-out: IC50
# Protocol: 3H-Ro 25-6981 binding (Ro 25-6981 is [R-(R*,S*)]-a-(4-Hydroxy-phenyl)-b-methyl-4-(phenyl-methyl)-1-piperidine propanol) Male Füllinsdorf albino rats weighing between 150-200 g were used. […] 3H-Ro 25-6981 binding experiments were performed using a Tris-HCl 50 mM, pH 7.4 buffer. For displacement experiments 5 nM of 3H-Ro 25-6981 were used and non specific binding was measured using 10 mM of tetrahydroisoquinoline and usually it accounts for 10% of the total. […]
Notebook: values listed as pIC50 are -log10 of the concentration (mol/L).

For the molecule Oc1ccc([C@H]2CC[C@H](NCC(O)Cc3ccccc3)CC2)cc1 (mixture of isomers) , report pIC50.
7.10

For the molecule CN(CCC(O)c1ccccc1)[C@H]1CC[C@H](c2ccc(O)cc2)CC1 (mixture of isomers) [Example 63b] , report pIC50.
7.70

For the molecule Cc1ccc(OCCN(C)[C@H]2CC[C@H](c3ccc(O)cc3)CC2)cc1 [Example 44b] , report pIC50.
8.10

For the molecule CN(CCCc1ccccc1)C1CCN(c2ccc(O)cc2)CC1 , report pIC50.
8.15

For the molecule C[C@@H]1CN(c2ccc(O)cc2)CC[C@@H]1NCCCc1ccccc1 (racemic) [Example 81g] , report pIC50.
7.57

For the molecule C[C@@H]1C[C@H](c2ccc(O)cc2)CC[C@H]1N(C)CCCc1ccccc1 (racemic) [Example 73b] , report pIC50.
8.00

For the molecule CN(CCOc1ccc(F)cc1)[C@H]1CC[C@H](c2ccc(O)cc2)CC1 [Example 46b] , report pIC50.
8.00

For the molecule Cc1ccccc1OCCN(C)[C@H]1CC[C@H](c2ccc(O)cc2)CC1 [Example 48c] , report pIC50.
7.40

---

# system name: NMDA receptor (Rattus norvegicus, UniProt P35439+Q00960)
# Construct: Membranes were prepared by homogenization of the whole brain minus cerebellum and medulla oblongata; from tissue; host or cells: rat whole brain minus cerebellum and medulla oblongata (membranes)
# assay remarks: 3H-Ro 25-6981 binding (displacement) on rat brain membranes
# Design: species or system Füllinsdorf albino rats
# applied conditions: displacement of 5 nM 3H-Ro 25-6981; rat whole brain membranes (minus cerebellum and medulla oblongata); 2 hours at 4°C; read-out: IC50
# Procedure: 3H-Ro 25-6981 binding (Ro 25-6981 is [R-(R*,S*)]-a-(4-Hydroxy-phenyl)-b-methyl-4-(phenyl-methyl)-1-piperidine propanol) Male Füllinsdorf albino rats weighing between 150-200 g were used. […] 3H-Ro 25-6981 binding experiments were performed using a Tris-HCl 50 mM, pH 7.4 buffer. For displacement experiments 5 nM of 3H-Ro 25-6981 were used and non specific binding was measured using 10 mM of tetrahydroisoquinoline and usually it accounts for 10% of the total. […]
measurement kind: IC50 (nM)
Answer format: numeric, nM implied, no suffix.

For the compound Oc1ccc(N2CCC(NCCCc3ccccc3)CC2)cc1 , report IC50.
7

For the compound Oc1ccc([C@H]2CC[C@H](NCCOc3ccccc3)CC2)cc1 [Example 43b] , report IC50.
20

For the compound C[C@@H]1C[C@H](c2ccc(O)cc2)CC[C@H]1NCCCc1ccccc1 (racemic) [Example 74c] , report IC50.
10

For the compound Oc1ccc([C@H]2CC[C@H](NCCCc3ccc(F)cc3)CC2)cc1 [Example 62b] , report IC50.
6
